# Read-out: Human Leukocyte Antigen - DR isotype (HLADR), HLA-DRA (gene 3122)
# PROCEDURE_DETAILS: BSK_3C_HLADR: BioMAP Diversity Plus: 3C Assay for Human Leukocyte Antigen - DR isotype (HLADR) Biomarker Activity (AID 2283019)
# MEASUREMENT_CONTEXT: primary human endothelial cells (HUVEC); actives raise or lower the signal
Calls of active or inactive are those of the source. How the source made its calls: active means hit-call score of the fitted dose curve at least 0.9, where 1 is the maximum; inactive means score below 0.9.
READOUT: AC50

Examples from the recorded data:
{"MOLECULE": "CCN(CC)C(=O)C(C)Oc1cccc2ccccc12 (stereo unspecified)", "AC50": "inactive"}
{"MOLECULE": "CCCCC(C#N)(Cn1cncn1)c1ccc(Cl)cc1 (stereo unspecified)", "AC50": "inactive"}
{"MOLECULE": "CCNP(=S)(OC)O/C(C)=C/C(=O)OC(C)C (stereo unspecified)", "AC50": "inactive"}
{"MOLECULE": "CCOc1cc(C(C)(C)C)ccc1C1COC(c2c(F)cccc2F)=N1 (stereo unspecified)", "AC50": "29.8 µM (active)"}
{"MOLECULE": "CSC(=O)c1c(C(F)F)nc(C(F)(F)F)c(C(=O)SC)c1CC(C)C", "AC50": "31.1 µM (active)"}

Now look at this entry.
### Prompt Reported AC50, molecule COC(=O)NS(=O)(=O)c1ccc(N)cc1 : ____
### Response inactive
